# PROTOCOL_SUMMARY: self-splicing fitness, log relative to wild type (ln ratio); higher = more splicing; Tetrahymena group I intron in knt gene, E. coli kanamycin selection, DiMSum; sequences stand for … in CUCUCU…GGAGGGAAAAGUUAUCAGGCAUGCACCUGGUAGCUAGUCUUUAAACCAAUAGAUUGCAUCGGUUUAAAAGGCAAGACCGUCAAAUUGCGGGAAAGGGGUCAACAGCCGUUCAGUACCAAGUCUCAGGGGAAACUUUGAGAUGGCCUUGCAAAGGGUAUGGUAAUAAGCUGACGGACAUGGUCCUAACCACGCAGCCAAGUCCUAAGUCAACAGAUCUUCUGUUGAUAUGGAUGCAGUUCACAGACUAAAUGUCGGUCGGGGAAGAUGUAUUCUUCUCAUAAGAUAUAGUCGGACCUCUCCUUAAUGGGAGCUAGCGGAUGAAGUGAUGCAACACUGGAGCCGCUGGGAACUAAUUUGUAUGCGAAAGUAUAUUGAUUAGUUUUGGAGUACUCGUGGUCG;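 also: selection with 25 µg/mL kanamycin versus none on LB agar overnight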
# CONDITION_SUMMARY: 30 °C
The following sequences are shown together with reported self-splicing fitness (ln) values.
Keep it simple and answer with nothing but the number.

Some entries whose results are on file:
       residue_sequence  observed_value
0  GGAGAGCAAUAUUACGGGAU            -4.2
1  CCGGAGCAAUAUUACGCUCA           -3.12
2  UUGAAGCAAUAUUACGCCAU           -1.71
3  UGACAGCAAUAUUACGUUCU          -0.552
4  UGGCAGCAAUAUUACGUCAA           -1.16

Consider now this further sequence.
Record request: self-splicing fitness (ln) value, item CAUCAGCAAUAUUACGGUAC
-2.95

* * *

# PROTOCOL_SUMMARY: self-splicing fitness, log relative to wild type (ln ratio); higher = more splicing; Tetrahymena group I intron in knt gene, E. coli kanamycin selection, DiMSum; sequences stand for … in CUCUCU…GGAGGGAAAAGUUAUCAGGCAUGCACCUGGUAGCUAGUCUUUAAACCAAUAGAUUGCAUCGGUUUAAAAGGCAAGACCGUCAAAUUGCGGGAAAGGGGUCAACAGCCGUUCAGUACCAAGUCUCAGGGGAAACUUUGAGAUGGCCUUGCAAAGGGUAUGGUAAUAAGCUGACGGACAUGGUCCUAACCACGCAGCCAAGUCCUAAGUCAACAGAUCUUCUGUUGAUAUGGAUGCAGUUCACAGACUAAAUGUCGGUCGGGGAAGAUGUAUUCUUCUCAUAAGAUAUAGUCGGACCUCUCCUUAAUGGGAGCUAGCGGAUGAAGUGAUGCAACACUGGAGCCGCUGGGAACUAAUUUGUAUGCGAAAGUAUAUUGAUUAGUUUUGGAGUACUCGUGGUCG
# CONDITION_SUMMARY: 30 °C
QUANTITY_KIND: self-splicing fitness (ln)

Record request: self-splicing fitness (ln) value, item UGACAGCAAUAUUACGUACG
-0.78

Record request: self-splicing fitness (ln) value, item GUGAAGCAAUAUUACGGUCG
-0.124

Record request: self-splicing fitness (ln) value, item GACGAGCAAUAUUACGAUCU
-2.04

Record request: self-splicing fitness (ln) value, item GGCAAGCAAUAUUACGGGGA
-3.51

Record request: self-splicing fitness (ln) value, item UAGUAGCAAUAUUACGUUCG
-0.331

// data source = the supplement of paper PMC7877785
